Consider the following binders and their measured % binding (parent = 100) readings.
molecular target: T1, human C5 (human, UniProt P01031 19-673; P01031 678-1676, Beta and alpha chains are disulfide-linked and the protein is glycosylated.); assay: Biacore, captured antibody, pH 7.4, 37 C;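 further: biacore binding response of anti-C5 antibody light chain variants captured on chip with human C5 injected, ACES running buffer containing 1.2 mM CaCl₂, parent light chain antibody set to 100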
T1 construct: Either in-house recombinant C5 or plasma derived C5 (CALBIOCHEM) was used; also called recombinant human C5; plasma derived human C5
Return type: number; implicit unit %.

Example cases with answers are listed next.
• CFP0018 18L 30Q (antibody, V domains shown) VH: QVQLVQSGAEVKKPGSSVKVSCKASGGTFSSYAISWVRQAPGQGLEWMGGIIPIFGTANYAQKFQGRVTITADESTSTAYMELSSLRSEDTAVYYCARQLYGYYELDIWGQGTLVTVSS VL: DIQMTQSPSSLSASVGDRVTITCRASQSIQDDLAWYQQKPGKAPKLLIYEASSLQSGVPSRFSGSGSGTDFTLTISSLQPEDFATYYCQQYNSYPLTFGQGTKVEIK = 130
• CFP0015 15L 96I (antibody, V domains shown) VH: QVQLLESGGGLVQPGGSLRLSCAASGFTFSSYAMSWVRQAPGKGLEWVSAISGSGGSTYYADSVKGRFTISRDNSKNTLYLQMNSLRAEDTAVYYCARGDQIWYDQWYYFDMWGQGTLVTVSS VL: DIQMTQSPSSLSASVGDRVTITCRASQSIEDDLAWYQQKPGKAPKLLIYEASNLQSGVPSRFSGSGSGTDFTLTISSLQPEDFATYYCQQYDSSPITFGQGTKVEIK = 103

Quick one: % binding (parent = 100) for CFP0011 11L 96W (antibody, V domains shown) VH: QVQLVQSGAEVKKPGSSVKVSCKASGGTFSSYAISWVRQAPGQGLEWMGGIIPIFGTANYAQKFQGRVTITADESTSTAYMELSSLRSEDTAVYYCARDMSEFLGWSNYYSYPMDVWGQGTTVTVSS VL: DIQMTQSPSSLSASVGDRVTITCRASQSIEDDLAWYQQKPGKAPKLLIYHASSLQSGVPSRFSGSGSGTDFTLTISSLQPEDFATYYCQQSDNSPWTFGQGTKVEIK ?
5.4

Check CFP0017 17L 92N (antibody, V domains shown) VH: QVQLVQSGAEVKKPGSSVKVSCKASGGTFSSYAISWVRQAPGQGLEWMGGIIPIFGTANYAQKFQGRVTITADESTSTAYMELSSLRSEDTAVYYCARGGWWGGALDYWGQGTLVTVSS VL: DIQMTQSPSSLSASVGDRVTITCRASQSIEDDLAWYQQKPGKAPKLLIYHASSLQSGVPSRFSGSGSGTDFTLTISSLQPEDFATYYCQQSNSYPLTFGQGTKVEIK too.
36.4

Next binder up: CFP0015 15L 30T (antibody, V domains shown) VH: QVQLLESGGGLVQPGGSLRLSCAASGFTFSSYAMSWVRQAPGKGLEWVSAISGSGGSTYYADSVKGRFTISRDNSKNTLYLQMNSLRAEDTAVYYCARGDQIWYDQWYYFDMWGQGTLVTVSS VL: DIQMTQSPSSLSASVGDRVTITCRASQSITDDLAWYQQKPGKAPKLLIYEASNLQSGVPSRFSGSGSGTDFTLTISSLQPEDFATYYCQQYDSSPLTFGQGTKVEIK
25.1
